Measured values drawn from patent US12606541B2 for this set.

# studyTarget: His6-TEV-PPARγ-(234-505) (Homo sapiens, UniProt P37231)
# Construct: The His6-TEV-PPARγ-(234-505) protein for assay was expressed and purified; TEV cleavage site (N); made in house
# assayName: TR-FRET Assay to Measure Co-R Peptide Recruitment to PPARγ
# Format: biochemical
# experimentalSetup: Co-R peptide (SMRT-ID2) recruitment; top final concentration 20 μM; read-out: TR-FRET i-Ag; AC50
Exercise: state measured AC50 for each of the molecules provided.

Report AC50 for each item below.
1. COc1cc(-c2cc(C(=O)N3CCC(C(=O)NCc4cccc(Cl)c4)CC3)n[nH]2)c(Cl)cn1
2. COc1cc(-c2cc(C(=O)N3CC[C@H](C(=O)NC4CCN(C5COC5)CC4)CC34CC4)n[nH]2)c(F)cn1
3. COc1cc(-c2cc(C(=O)N3CCC(C(=O)NCc4cn5cc(C)ccc5n4)CC3)n[nH]2)c(Cl)cn1
4. COc1cc(-c2cc(C(=O)N3CCC(C(=O)Nc4cnn5ccc(C6CC6C#N)nc45)CC34CC4)n[nH]2)c(F)cn1 (mixture of isomers)

# output
30.3 nM
681 nM
309 nM
5.1 nM

====

Record form. Attribute: log10(AC50). Fill in for each entry.
# studyTarget: His6-TEV-PPARγ-(234-505) (Homo sapiens, UniProt P37231)
# Construct: The His6-TEV-PPARγ-(234-505) protein for assay was expressed and purified; TEV cleavage site (N); made in house
# assayName: TR-FRET Assay to Measure Co-R Peptide Recruitment to PPARγ
# Format: biochemical
# experimentalSetup: Co-R peptide (SMRT-ID2) recruitment; top final concentration 20 μM; read-out: TR-FRET i-Ag; AC50
// do not treat as linear: log10 of AC50, unit nM

Give me log10(AC50) for each of these compounds, listed below.
1. COc1cc(-c2cc(C(=O)N3CCC(C(=O)NCc4ccc(OC(F)F)cc4)CC3)n[nH]2)c(Cl)cn1
2. COc1cc(-c2cc(C(=O)N3CCC(C(=O)NCc4cc5ccccc5[nH]4)CC3)n[nH]2)c(Cl)cn1
3. COc1cc(-c2cc(C(=O)N3CC[C@H](C(=O)NCc4cccnc4C(F)(F)F)CC34CC4)[nH]n2)c(F)cn1 [Example 513]
4. COc1cc(-c2cc(C(=O)N3CC[C@H](C(=O)NCc4ncc(F)cc4C)CC34CC4)n[nH]2)c(F)cn1
5. COc1cc(-c2cc(C(=O)N3CC[C@H](C(=O)NC4CCC5(CC4)N([S+]([O-])C(C)(C)C)CC5(F)F)CC34CC4)n[nH]2)c(F)cn1 (some centres unmarked)
6. COc1cc(-c2cc(C(=O)N3CC[C@H](C(=O)NC4CCN(C5COC56CNC6)C4)CC34CC4)n[nH]2)c(F)cn1 (single isomer, unassigned) [Example 461-C]
7. COc1cc(-c2cc(C(=O)N3CC[C@H](C(=O)NCc4nnc(C)cc4C)CC34CC4)n[nH]2)c(F)cn1

# output
1: 1.68; 2: 1.39; 3: 0.79; 4: 1.01; 5: 1.49; 6: 2.57; 7: 1.90

====

Please respond with reported AC50 for every item in the list.
# studyTarget: His6-TEV-PPARγ-(234-505) (Homo sapiens, UniProt P37231)
# Construct: The His6-TEV-PPARγ-(234-505) protein for assay was expressed and purified; TEV cleavage site (N); made in house
# Sequence (P37231 234-505): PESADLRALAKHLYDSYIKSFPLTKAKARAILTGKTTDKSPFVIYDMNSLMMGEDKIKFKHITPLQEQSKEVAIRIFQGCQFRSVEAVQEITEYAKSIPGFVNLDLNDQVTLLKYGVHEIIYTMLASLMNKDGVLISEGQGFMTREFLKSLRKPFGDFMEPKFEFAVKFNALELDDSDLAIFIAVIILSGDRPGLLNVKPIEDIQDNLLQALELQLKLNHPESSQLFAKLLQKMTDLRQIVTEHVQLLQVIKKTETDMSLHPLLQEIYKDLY
# assayName: TR-FRET Assay to Measure Co-R Peptide Recruitment to PPARγ
# Type: biochemical
# experimentalSetup: Co-R peptide (SMRT-ID2) recruitment; top final concentration 20 μM; read-out: TR-FRET i-Ag; AC50
Numbers only, in µM.

Sample records with AC50:
compound: COc1cc(-c2nc(C(=O)N3CCC(C(=O)NCc4cccc(Cl)c4)CC3)n[nH]2)c(F)cn1
studyTarget: His6-TEV-PPARγ-(234-505) (Homo sapiens, UniProt P37231)
unitsOfMeasure: µM
endpointValue: 0.3

compound: COc1cc(-c2cc(C(=O)N3CCC(C(=O)NC4CN(c5cnc(C)cn5)CC4(F)F)CC34CC4)n[nH]2)c(F)cn1 (mixture of isomers)
studyTarget: His6-TEV-PPARγ-(234-505) (Homo sapiens, UniProt P37231)
unitsOfMeasure: µM
endpointValue: 0.0019

compound: COc1cc(-c2cc(C(=O)N3CCC(C(=O)NCc4ccc5[nH]c(C)nc5c4)CC3)n[nH]2)c(Cl)cn1
studyTarget: His6-TEV-PPARγ-(234-505) (Homo sapiens, UniProt P37231)
unitsOfMeasure: µM
endpointValue: 0.265

Would you mind giving AC50 for every compound in the list below?
1. COc1cc(-c2cc(C(=O)N3CCC(C(=O)NCc4ccc5cnn(C)c5c4)CC3)n[nH]2)c(Cl)cn1
2. Cc1cc(-c2cc(C(=O)N3CC[C@H](C(=O)N[C@H]4CC[C@@](O)(C(F)(F)F)CC4)CC34CC4)n[nH]2)c(F)cn1 (single isomer, unassigned)
3. Cc1cc(-c2cc(C(=O)N3CC[C@H](C(=O)NC4CCC5(CCO5)CC4)CC34CC4)n[nH]2)ncn1 (stereo partly drawn)

# output
1. 0.0706
2. 0.0023
3. 0.995
